Record form. Attribute: Detoxification Percent. Fill in for each entry.
Molecular target: CYP3A4 (Homo sapiens)
Sequence (P08684 whole entry): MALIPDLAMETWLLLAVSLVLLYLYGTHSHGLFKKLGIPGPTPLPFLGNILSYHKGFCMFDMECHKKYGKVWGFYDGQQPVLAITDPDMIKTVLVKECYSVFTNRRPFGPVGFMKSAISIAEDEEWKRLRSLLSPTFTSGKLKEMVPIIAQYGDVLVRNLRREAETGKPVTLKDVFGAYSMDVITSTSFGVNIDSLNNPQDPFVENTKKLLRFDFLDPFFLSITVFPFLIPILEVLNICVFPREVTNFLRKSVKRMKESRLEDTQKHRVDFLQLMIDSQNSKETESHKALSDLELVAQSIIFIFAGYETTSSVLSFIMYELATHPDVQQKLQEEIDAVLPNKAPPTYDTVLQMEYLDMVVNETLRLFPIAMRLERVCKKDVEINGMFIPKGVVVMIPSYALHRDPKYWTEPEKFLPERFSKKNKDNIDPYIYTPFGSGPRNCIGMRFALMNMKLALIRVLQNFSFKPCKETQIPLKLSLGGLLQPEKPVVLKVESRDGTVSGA
Experiment: Relative CYP contribution to hepatic bioactivation and detoxification, CYP3A4
Format: in vitro ADME
Conditions: CYP3A4 contribution to total CLdetox of the NSAID
Your answer should be a plain number; it is taken to be in %.

Task: Provide measured Detoxification Percent value, entry: O=C(O)COC(=O)Cc1ccccc1Nc1c(Cl)cccc1Cl
Result: 60.4

Task: Return reported Detoxification Percent. Input compound: Cc1cccc(Nc2ccccc2C(=O)O)c1C
Result: 56.4

Task: Supply recorded Detoxification Percent for Cc1ccc(Cl)c(Nc2ccccc2C(=O)O)c1Cl here.
Result: 61.6

Task: Tell us which Detoxification Percent value is on record for Cc1ccc(Nc2c(F)cccc2Cl)c(CC(=O)O)c1
Result: 68.0

Task: Indicate the recorded Detoxification Percent value for this compound: O=C(O)c1ccccc1Nc1cccc(C(F)(F)F)c1
Result: 69.0

Task: Report measured Detoxification Percent; entry is Cc1c(Cl)cccc1Nc1ccccc1C(=O)O
Result: 60.9

Task: Specify reported Detoxification Percent for the compound shown: O=C(O)Cc1ccccc1Nc1c(Cl)cccc1Cl
Result: 75.9

====

Target: CYP2C19 (Homo sapiens)
Sequence (P33261 whole entry): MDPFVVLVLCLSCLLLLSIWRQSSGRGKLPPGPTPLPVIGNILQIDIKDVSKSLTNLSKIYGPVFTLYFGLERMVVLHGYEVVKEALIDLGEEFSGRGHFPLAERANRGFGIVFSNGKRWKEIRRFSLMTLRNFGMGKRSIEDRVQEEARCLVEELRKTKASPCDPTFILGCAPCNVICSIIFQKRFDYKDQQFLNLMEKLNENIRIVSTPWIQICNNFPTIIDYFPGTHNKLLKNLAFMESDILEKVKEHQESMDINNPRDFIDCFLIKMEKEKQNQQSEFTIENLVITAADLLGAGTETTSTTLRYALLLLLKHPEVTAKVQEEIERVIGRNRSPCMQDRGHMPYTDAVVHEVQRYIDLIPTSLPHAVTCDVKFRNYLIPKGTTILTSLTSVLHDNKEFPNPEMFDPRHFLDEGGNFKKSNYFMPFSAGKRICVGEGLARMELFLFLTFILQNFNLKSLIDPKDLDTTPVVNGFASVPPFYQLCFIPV
Assay: Relative CYP contribution to hepatic bioactivation and detoxification, CYP2C19
Type: in vitro ADME
Conditions: CYP2C19 contribution to total CLbioact of the NSAID
Consider the following compounds; for each one, report its Bioactivation Percent.
Number in %, nothing else.

Task: Note down Bioactivation Percent recorded for O=C(O)COC(=O)Cc1ccccc1Nc1c(Cl)cccc1Cl
Result: 2.0

Task: For O=C(O)c1ccccc1Nc1cccc(C(F)(F)F)c1 , write its Bioactivation Percent.
Result: 1.7

Task: Complete the entry with Bioactivation Percent for Cc1cccc(Nc2ccccc2C(=O)O)c1C
Result: 1.2

Task: Write down Bioactivation Percent measured for item Cc1ccc(Cl)c(Nc2ccccc2C(=O)O)c1Cl
Result: 19.6

Task: Item Cc1c(Cl)cccc1Nc1ccccc1C(=O)O : provide Bioactivation Percent
Result: 2.0

Task: Annotate the compound O=C(O)Cc1ccccc1Nc1c(Cl)cccc1Cl with its measured Bioactivation Percent.
Result: 1.0

Task: Please supply the value of reported Bioactivation Percent for the item Cc1ccc(Nc2c(F)cccc2Cl)c(CC(=O)O)c1
Result: 0.5

====

Molecular target: CYP2C8 (Homo sapiens, UniProt P10632)
Sequence (P10632 1-490): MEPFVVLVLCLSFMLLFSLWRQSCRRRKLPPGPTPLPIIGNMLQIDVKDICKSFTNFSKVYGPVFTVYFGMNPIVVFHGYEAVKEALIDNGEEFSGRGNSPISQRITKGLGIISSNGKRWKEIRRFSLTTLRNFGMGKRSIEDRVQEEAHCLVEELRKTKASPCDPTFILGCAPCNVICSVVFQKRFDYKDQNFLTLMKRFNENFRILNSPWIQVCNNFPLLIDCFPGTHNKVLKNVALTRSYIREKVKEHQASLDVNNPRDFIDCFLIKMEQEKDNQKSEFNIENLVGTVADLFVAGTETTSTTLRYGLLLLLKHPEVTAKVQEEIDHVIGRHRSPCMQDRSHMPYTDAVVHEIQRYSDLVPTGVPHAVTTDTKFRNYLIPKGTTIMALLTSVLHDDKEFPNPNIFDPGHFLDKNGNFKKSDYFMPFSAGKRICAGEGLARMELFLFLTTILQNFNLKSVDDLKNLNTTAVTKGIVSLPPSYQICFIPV
Assay: Steady-state kinetics of overall NSAID metabolism
Type: in vitro ADME
Details: human, recombinant CYP2C8 Supersomes, pH 7.4
Measured metric: Km at 60 min (µM)
Lab book: enter the figure in µM, no units written.

Task: Write down the reported Km at 60 min (system: CYP2C8 (Homo sapiens, UniProt P10632)) of O=C(O)Cc1ccccc1Nc1c(Cl)cccc1Cl
Result: 83
